Measured self-splicing fitness (ln) accompanies every entry in the list below.
Test: self-splicing fitness, log relative to wild type (ln ratio); higher = more splicing; Tetrahymena group I intron in knt gene, E. coli kanamycin selection, DiMSum; sequences stand for … in CUCUCU…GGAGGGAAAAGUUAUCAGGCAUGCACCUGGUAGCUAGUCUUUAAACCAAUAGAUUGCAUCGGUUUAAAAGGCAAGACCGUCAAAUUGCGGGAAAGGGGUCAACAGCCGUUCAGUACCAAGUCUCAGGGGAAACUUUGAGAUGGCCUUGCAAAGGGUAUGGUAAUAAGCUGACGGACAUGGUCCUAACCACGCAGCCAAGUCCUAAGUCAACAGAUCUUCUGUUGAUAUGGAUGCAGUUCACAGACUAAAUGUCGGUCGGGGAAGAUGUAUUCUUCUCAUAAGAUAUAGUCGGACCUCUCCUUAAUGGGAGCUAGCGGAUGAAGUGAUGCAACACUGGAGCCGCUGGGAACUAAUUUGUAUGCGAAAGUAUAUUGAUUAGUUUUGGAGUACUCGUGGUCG;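 further: selection with 25 µg/mL kanamycin versus none on LB agar overnight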
Conditions: 30 °C
Readout Type: self-splicing fitness (ln)

* UUCCAGCAAUAUUACGCUCC | -2.51
* UAACAGCAAUAUUACGACUA | -0.142
* UGUAAGCAAUAUUACGACUA | 0.00851
* UUUGAGCAAUAUUACGGUGC | -2.74
* GUCAAGCAAUAUUACGGGAG | -3.23
* AACAAGCAAUAUUACGGAAU | -2.64
* UCUUAGCAAUAUUACGGAUA | -2.68
* CCAUAGCAAUAUUACGUGCA | -2.77
* GAUAAGCAAUAUUACGCCGA | -2.01
* UAUGAGCAAUAUUACGAUGA | -1.41
* AACUAGCAAUAUUACGAGGC | -3.35
* CACGAGCAAUAUUACGCAAU | -4.23
* GGUCAGCAAUAUUACGGCGU | 0.348
* AUUCAGCAAUAUUACGCUUA | -0.623
* AUCGAGCAAUAUUACGUGGC | -2.91
* UAUGAGCAAUAUUACGGUAG | -1.79
* UUCAAGCAAUAUUACGAAGG | -4.7
* GUGCAGCAAUAUUACGGUUU | -0.309
* UGCGAGCAAUAUUACGCCUC | -2.78
* GCUCAGCAAUAUUACGAGUG | -1.21
* ACUUAGCAAUAUUACGGAAC | -3.24

---

Experiment: self-splicing fitness, log relative to wild type (ln ratio); higher = more splicing; Tetrahymena group I intron in knt gene, E. coli kanamycin selection, DiMSum; sequences stand for … in CUCUCU…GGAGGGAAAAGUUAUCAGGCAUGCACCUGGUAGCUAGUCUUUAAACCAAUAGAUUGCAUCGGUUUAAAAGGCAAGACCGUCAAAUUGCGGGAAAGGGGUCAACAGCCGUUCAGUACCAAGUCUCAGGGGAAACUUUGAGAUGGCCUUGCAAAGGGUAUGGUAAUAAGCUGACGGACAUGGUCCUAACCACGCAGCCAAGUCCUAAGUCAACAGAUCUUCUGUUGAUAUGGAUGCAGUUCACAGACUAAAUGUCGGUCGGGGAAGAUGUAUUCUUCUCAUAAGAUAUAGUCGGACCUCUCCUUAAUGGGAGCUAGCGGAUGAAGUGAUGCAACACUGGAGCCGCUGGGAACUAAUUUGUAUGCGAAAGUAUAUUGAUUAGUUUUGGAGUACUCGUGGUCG
Settings: 30 °C
Readout Type: self-splicing fitness (ln)

• UGACAGCAAUAUUACGACCU = -1.09
• GAGAAGCAAUAUUACGUUCG = -1.38
• GUGGAGCAAUAUUACGCGUU = -2.56
• GGUAAGCAAUAUUACGAAUC = -0.515
• UGUCAGCAAUAUUACGACUC = -1.12
• AAUAAGCAAUAUUACGAUUG = -2.35
• AGCCAGCAAUAUUACGUGGG = -3.16
• ACUAAGCAAUAUUACGGCGU = -0.894
• CUAGAGCAAUAUUACGACCA = -2.61
• GGGUAGCAAUAUUACGGCUU = -0.41
• GGCGAGCAAUAUUACGGCAA = -0.896
• ACACAGCAAUAUUACGAUCA = -1.39
• UAAAAGCAAUAUUACGGUCA = 0.0761
• CUGAAGCAAUAUUACGUCAC = -2.03
• GUUGAGCAAUAUUACGUCAG = -2.67
• GUUCAGCAAUAUUACGGUUG = -1.9
• AGUGAGCAAUAUUACGUUUA = -3.37
• GGAUAGCAAUAUUACGGGUG = -2.79
• GAAAAGCAAUAUUACGGUCC = -1.8
• CUUAAGCAAUAUUACGCCCG = -1.46
• UGCCAGCAAUAUUACGAUGG = -3.49
• AGCUAGCAAUAUUACGCAAA = -1.8
• CCGGAGCAAUAUUACGGGGC = -3.78
• CAGAAGCAAUAUUACGGAGU = -3.56
• AGCCAGCAAUAUUACGCUUG = -3.52
• GUUUAGCAAUAUUACGUUGC = -3.73
